Target: T1, HiBiT-tagged human FZD4 (human, UniProt Q9ULV1 37-537)
T1 construct: the receptor's own signal peptide is probably replaced; also called HiBiT-FZD4; WT FZD4; source: HEK293A, transiently transfected, on live cells; not shown: HiBiT, N-terminal, kept
T1 sequence (looked up): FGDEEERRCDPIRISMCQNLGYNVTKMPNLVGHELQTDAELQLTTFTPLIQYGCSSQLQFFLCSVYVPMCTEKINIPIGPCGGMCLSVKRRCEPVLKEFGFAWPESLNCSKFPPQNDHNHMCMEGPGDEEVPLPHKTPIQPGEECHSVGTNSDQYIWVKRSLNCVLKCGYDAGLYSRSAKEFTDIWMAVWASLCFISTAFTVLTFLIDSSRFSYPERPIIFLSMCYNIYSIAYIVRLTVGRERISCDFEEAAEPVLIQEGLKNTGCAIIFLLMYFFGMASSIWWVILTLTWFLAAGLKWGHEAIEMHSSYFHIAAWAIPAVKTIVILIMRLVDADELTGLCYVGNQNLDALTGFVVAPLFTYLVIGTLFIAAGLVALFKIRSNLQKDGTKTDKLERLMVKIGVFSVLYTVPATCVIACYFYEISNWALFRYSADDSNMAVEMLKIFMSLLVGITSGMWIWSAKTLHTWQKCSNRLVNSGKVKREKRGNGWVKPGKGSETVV
Assay: FRET or BRET; NanoBiT/BRET competition binding on live HEK293A cells with HiBiT-FZD4: 30 min preincubation with purified untagged WNT at 37 °C, then eGFP-WNT-3A to 0.4 nM for 240 min, then LgBiT and furimazine; pKi by Cheng-Prusoff
Conditions: one partner purified
observable: pKi

[[record]]
binder = "untagged human WNT-11 (ligand, UniProt O96014 25-354, looked up, WNT-11, human, untagged recombinant protein; source: bought: RnD Systems/Biotechne, purified) IKWLALSKTPSALALNQTQHCKQLEGLVSAQVQLCRSNLELMHTVVHAAREVMKACRRAFADMRWNCSSIELAPNYLLDLERGTRESAFVYALSAAAISHAIARACTSGDLPGCSCGPVPGEPPGPGNRWGGCADNLSYGLLMGAKFSDAPMKVKKTGSQANKLMRLHNSEVGRQALRASLEMKCKCHGVSGSCSIRTCWKGLQELQDVAADLKTRYLSATKVVHRPMGTRKHLVPKDLDIRPVKDSELVYLQSSPDFCMKNEKVGSHGTQDRQCNKTSNGSDSCDLMCCGRGYNPYTDRVVERCHCKYHWCCYVTCRRCERTVERYVCK"
result = 8.9


Source listed as paper PMC8205236.
